# PROTOCOL: inhibitors of polyQ protein aggregation (AID 1604)
# CONDITION_INFO: polyglutamine-induced protein aggregation inhibition assay; stronger effect = higher value; concentration not given here
VALUE_TYPE: inhibition of aggregation (%)

1. CN1CCc2cc3c(cc2C1O)OCO3 (stereo unspecified): 65.5
2. FC(F)(F)c1cccc(N2CCNCC2)c1: 50
3. C#CC1(O)CCC2C3CCC4=CC(=O)CCC4(C)C3CCC21C (stereo unspecified): 63.6
4. CC(N)Cc1ccccc1 (stereo unspecified): 10.2
5. O=[N+]([O-])c1cc([As](=O)(O)O)ccc1O: 3.7
6. CN1CC[C@]23c4c5ccc(O)c4O[C@H]2C(=O)CCC3[C@H]1C5 (stereo partly specified): -0.68
7. O=C(O)c1ccccc1-c1c2cc(Br)c(=O)cc-2oc2[c]([Hg])c(O)c(Br)cc12: 57.7
8. CCOC(=O)C1C(OC(=O)c2ccccc2)CC2CCC1N2C (stereo unspecified): 44.2
9. CN1CCc2cc3c(cc2[C@H]1[C@@H]1OC(=O)c2c1ccc1c2OCO1)OCO3: 59.1
10. CCCCCCCCCCCCCCCC[n+]1ccccc1: 52.2
11. COc1ccc2c(c1OC)C(=O)O[C@H]2[C@H]1c2cc3c(cc2CCN1C)OCO3: 71.9
12. COC12CC[C@@]3(C[C@@H]1C(C)(O)C(C)(C)C)[C@H]1Cc4ccc(O)c5c4[C@@]3(CCN1CC1CC1)[C@H]2O5 (stereo partly specified): -0.68
13. CCCCC[C@H]1C(=O)O[C@H](C)[C@H](NC(=O)c2cccc(NC=O)c2O)C(=O)O[C@@H](C)[C@@H]1OC(=O)CC(C)C: 7.32
14. O=c1ccc2cc(O[C@H]3O[C@H](CO)[C@@H](O)[C@H](O)[C@H]3O)c(O)cc2o1: 56.9
15. Clc1ccc(COC(Cn2ccnc2)c2ccc(Cl)cc2Cl)c(Cl)c1 (stereo unspecified): 80.3
16. Oc1ccc(Cl)cc1: 31.7
17. CC(=O)C1=C(O)C2C3c4c[nH]c5cccc(c45)CC3C(C)(C)N2C1=O (stereo unspecified): -15.2
18. O=c1ccc2cc(O[C@@H]3O[C@H](CO)[C@@H](O)[C@H](O)[C@H]3O)c(O)cc2o1: 54.9
19. CN(C)[C@@H]1C(=O)C(C(N)=O)=C(O)[C@@]2(O)C(=O)C3=C(O)c4c(O)ccc(Cl)c4[C@@](C)(O)[C@H]3C[C@@H]12: 9.52
20. Cc1cccc(C)c1NC1=NCCCS1: 87.3
21. O=C1CC[C@@]2(O)[C@H]3Cc4ccc(O)c5c4C2(CCN3CC2CC2)[C@H]1O5: 61.5

----------
# PROTOCOL: enhancers of glutamate uptake in motor neurons, MN-1 cell line (AID 1612);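 note: 0% = mean of DMSO vehicle wells on each plate; positive means more glutamate uptake than control and negative means less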
# CONDITION_INFO: MN-1 motor neuron cells, stronger effect = higher value
VALUE_TYPE: glutamate uptake change (%)

1) COc1cc(CCN)cc(OC)c1OC: -3.12
2) CC(C)(O)[C@@H]1[C@H]2OC(=O)[C@@H]1[C@]1(O)C[C@H]3O[C@]34C(=O)O[C@H]2[C@]14C: 14.8
3) ClC1C(Cl)C(Cl)C(Cl)C(Cl)C1Cl (stereo not given): 1.02
4) O=C1CC[C@@]2(O)[C@H]3Cc4ccc(O)c5c4C2(CCN3CC2CC2)[C@H]1O5: 10.7
5) C/C=C(/C)C(=O)O[C@H]1CC[C@@]2(C)[C@@H]3CC[C@H]4[C@]5(O)C[C@H](O)[C@@]6(O)[C@@H](CN7C[C@@H](C)CC[C@H]7[C@@]6(C)O)[C@]5(O)C[C@@]42O[C@]13O: 7.49
6) CC[C@@]1(O)C(=O)OCc2c1cc1n(c2=O)Cc2cc3ccccc3nc2-1: -25.7
7) C[C@]12CCC3C(CC[C@]4(O)C[C@@H](O)CC[C@]34C=O)[C@@]1(O)CCC2C1=CC(=O)OC1 (stereo not given in full): 13.8
8) Clc1ccc(COC(Cn2ccnc2)c2ccc(Cl)cc2Cl)cc1 (stereo not given): 16.9
9) FC(F)(F)c1cccc(N2CCNCC2)c1: 0.29
10) CN1CC(CNC(=O)OCc2ccccc2)CC2c3cccc4c3c(cn4C)CC21 (stereo not given): 5.85

The origin of these recorded values is PubChem BioAssay.
